Data credit: patent US8003649B2

# assayTarget: Androgen Receptor (AR) (Homo sapiens, UniProt P10275, T878A)
# Construct: cell based immuno-fluorescence assay using the LNCaP prostate epithelial cell line; endogenous in cells; host or cells: LNCaP clone FGC (ATCC CRL-1740)
# Sequence (P10275 1-920 T878A): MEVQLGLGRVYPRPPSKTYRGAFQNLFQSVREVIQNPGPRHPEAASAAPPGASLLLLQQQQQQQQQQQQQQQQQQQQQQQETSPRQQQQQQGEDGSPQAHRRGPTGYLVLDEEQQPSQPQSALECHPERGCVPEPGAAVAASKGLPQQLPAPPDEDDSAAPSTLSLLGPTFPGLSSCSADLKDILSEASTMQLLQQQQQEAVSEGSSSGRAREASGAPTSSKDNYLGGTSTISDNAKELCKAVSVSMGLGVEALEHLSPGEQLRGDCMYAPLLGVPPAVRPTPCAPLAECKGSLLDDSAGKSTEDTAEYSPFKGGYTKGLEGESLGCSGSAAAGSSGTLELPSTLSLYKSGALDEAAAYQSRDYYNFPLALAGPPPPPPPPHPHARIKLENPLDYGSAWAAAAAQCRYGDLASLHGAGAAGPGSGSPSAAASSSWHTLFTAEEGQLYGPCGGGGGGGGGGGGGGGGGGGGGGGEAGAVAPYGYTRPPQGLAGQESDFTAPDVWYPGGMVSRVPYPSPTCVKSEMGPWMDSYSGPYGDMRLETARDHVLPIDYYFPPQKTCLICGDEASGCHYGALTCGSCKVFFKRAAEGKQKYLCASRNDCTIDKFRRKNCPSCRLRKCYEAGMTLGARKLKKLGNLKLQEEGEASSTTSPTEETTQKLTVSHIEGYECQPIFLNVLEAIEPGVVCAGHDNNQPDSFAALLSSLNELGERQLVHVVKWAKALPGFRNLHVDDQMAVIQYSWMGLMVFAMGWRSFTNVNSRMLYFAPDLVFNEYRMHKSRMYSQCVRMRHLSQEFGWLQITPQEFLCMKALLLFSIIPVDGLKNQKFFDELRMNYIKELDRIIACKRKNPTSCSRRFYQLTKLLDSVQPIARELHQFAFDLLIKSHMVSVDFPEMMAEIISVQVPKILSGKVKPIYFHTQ
# experimentDescription: LNCaP Androgen Receptor Down-regulation Cell Assay (immunofluorescence end point)
# Format: cell-based
# protocolConditions: LNCaP prostate carcinoma cells, compound incubation 20-22 hours, 50% reduction of the AR signal; read-out: Androgen Receptor Down-regulation Assay (a) IC50/μM
reportedEndpoint: DC50 (µM)
Numeric answer only, unit µM assumed.

# smilesText, DC50, µM
data = [
    ("CC(C)OCC1CCN(c2ccc3nnc(C(F)(F)F)n3n2)CC1", 5.7),
]

Turning now to a further compound:
// query Fill in DC50 for FC(F)(F)c1nnc2ccc(N3CCC(Oc4ccc(OCCN5CCCC5)cc4)CC3)nn12 tested with Androgen Receptor (AR) (Homo sapiens, UniProt P10275, T878A).
// result 1.5

----------
Reported DC50 values are given for each entry in this list.
# assayTarget: Androgen Receptor (AR) (Homo sapiens, UniProt P10275, T878A)
# Construct: cell based immuno-fluorescence assay using the LNCaP prostate epithelial cell line; endogenous in cells; host or cells: LNCaP clone FGC (ATCC CRL-1740)
# experimentDescription: LNCaP Androgen Receptor Down-regulation Cell Assay (immunofluorescence end point)
# Assay type: cell-based
# protocolConditions: LNCaP prostate carcinoma cells, compound incubation 20-22 hours, 50% reduction of the AR signal; read-out: Androgen Receptor Down-regulation Assay (a) IC50/μM
# Experimental: The ability of compounds to reduce Androgen Receptor (AR) numbers was assessed in a cell based immuno-fluorescence assay using the LNCaP prostate epithelial cell line. a) LNCaP Androgen Receptor Down-regulation Cell Assay […] Immunostaining was performed at room temperature. […] Then 50 μl of PBST was added to each well and plates were covered with a black plate seal and stored at 4° C. before being read. Plates were read within six hours of completing the immunostaining. […]
Numeric answer only, unit µM assumed.

# molecule, scaleUnit, DC50
records = [
    ("Fc1ncc(Br)cc1CN1CC2CN(c3ccc4nnc(C(F)(F)F)n4n3)CC2C1 (centres unmarked) [Example 795]", "µM", 2.4),
    ("Fc1cccc(OCC2CCN(c3ccc4nnc(C(F)(F)F)n4n3)CC2)c1 [Example 464]", "µM", 1.4),
    ("O=C(c1ccc(C2CCN(c3ccc4nnc(C(F)(F)F)n4n3)CC2)cc1)N1CCC(O)CC1 [Example 740]", "µM", 2),
    ("NC(=O)COc1ccc(CN2CCN(c3ccc4nnc(C(F)(F)F)n4n3)CC2)cc1 [Example 153]", "µM", 7.9),
    ("FC(F)(F)c1nnc2ccc(N3CC4CN(Cc5cccnc5)CC4C3)nn12 (centres unmarked) [Example 206]", "µM", 2),
]

// query Look up DC50 of Cc1cc(COc2cccc(OC3CCN(c4ccc5nnc(C(F)(F)F)n5n4)CC3)c2)no1 [Example 446] and report it.
// result 0.7

// query Look up DC50 of COc1ccc(C2(O)CCN(c3ccc4nnc(C(F)(F)F)n4n3)CC2)cn1 [Example 321] and report it.
// result 8

// query Look up DC50 of Fc1ccc(CN2CCN(c3ccc4nnc(C(F)(F)F)n4c3)CC2)cc1 [Example 191] and report it.
// result 2.1

// query Look up DC50 of FC(F)(F)c1nnc2ccc(N3CCC(Oc4ccc(Cl)nc4)CC3)nn12 [Example 720] and report it.
// result 2.7

// query Look up DC50 of Fc1ccc(CCN2CCN(c3ccc4nnc(C(F)(F)F)n4n3)CC2)cc1 [Example 230] and report it.
// result 2.1

// query Look up DC50 of O=S(=O)(c1ccc(F)cc1)N1CCN(c2ccc3nnc(C(F)(F)F)n3n2)CC1 [Example 405] and report it.
// result 3

----------
# assayTarget: Androgen Receptor (AR) (Homo sapiens, UniProt P10275, T878A)
# Construct: cell based immuno-fluorescence assay using the LNCaP prostate epithelial cell line; endogenous in cells; host or cells: LNCaP clone FGC (ATCC CRL-1740)
# Sequence (P10275 1-920 T878A): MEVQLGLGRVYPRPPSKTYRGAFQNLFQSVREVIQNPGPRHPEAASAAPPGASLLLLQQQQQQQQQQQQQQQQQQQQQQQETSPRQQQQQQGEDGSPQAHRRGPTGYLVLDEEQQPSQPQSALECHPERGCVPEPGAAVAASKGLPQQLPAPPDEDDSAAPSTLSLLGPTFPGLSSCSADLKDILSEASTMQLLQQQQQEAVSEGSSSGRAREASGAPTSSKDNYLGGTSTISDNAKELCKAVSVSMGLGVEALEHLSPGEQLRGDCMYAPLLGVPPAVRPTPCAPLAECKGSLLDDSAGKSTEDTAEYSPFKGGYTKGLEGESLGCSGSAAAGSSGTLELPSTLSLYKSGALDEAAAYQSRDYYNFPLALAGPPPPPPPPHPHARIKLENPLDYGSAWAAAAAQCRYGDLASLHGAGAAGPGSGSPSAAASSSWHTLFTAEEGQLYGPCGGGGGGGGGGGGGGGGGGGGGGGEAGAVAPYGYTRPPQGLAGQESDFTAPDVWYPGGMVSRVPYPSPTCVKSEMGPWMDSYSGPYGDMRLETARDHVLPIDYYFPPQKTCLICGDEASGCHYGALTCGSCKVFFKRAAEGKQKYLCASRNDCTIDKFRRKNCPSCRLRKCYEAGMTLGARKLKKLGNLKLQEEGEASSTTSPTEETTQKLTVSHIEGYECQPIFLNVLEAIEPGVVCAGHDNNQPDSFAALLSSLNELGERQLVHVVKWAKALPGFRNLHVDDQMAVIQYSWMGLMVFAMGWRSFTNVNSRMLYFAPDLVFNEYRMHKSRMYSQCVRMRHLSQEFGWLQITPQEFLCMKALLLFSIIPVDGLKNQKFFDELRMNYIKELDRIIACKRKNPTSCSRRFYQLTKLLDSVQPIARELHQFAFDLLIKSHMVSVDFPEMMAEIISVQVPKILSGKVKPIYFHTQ
# experimentDescription: LNCaP Androgen Receptor Down-regulation Cell Assay (immunofluorescence end point)
# Format: cell-based
# protocolConditions: LNCaP prostate carcinoma cells, compound incubation 20-22 hours, 50% reduction of the AR signal; read-out: Androgen Receptor Down-regulation Assay (a) IC50/μM
# Protocol: The ability of compounds to reduce Androgen Receptor (AR) numbers was assessed in a cell based immuno-fluorescence assay using the LNCaP prostate epithelial cell line. a) LNCaP Androgen Receptor Down-regulation Cell Assay […] Immunostaining was performed at room temperature. […] Then 50 μl of PBST was added to each well and plates were covered with a black plate seal and stored at 4° C. before being read. Plates were read within six hours of completing the immunostaining. […]
reportedEndpoint: log10 DC50 (log10 of the value in µM)
Reminder: these figures are log10 of reported DC50, in µM before transformation.

Some solved entries appear below for comparison.
# molecule, assayTarget, reading
rows = [
    ("N#Cc1ccc(-c2nc(N3CCN(c4ccc5nnc(C(F)(F)F)n5n4)CC3)no2)cc1", "Androgen Receptor (AR) (Homo sapiens, UniProt P10275, T878A)", 0.30),
    ("FC(F)(F)c1nnc2ccc(N3CCN(Cc4ccc(Oc5ccc(Cl)cc5)cc4)CC3)nn12", "Androgen Receptor (AR) (Homo sapiens, UniProt P10275, T878A)", 0.41),
    ("COc1cccc(CN2CCN(c3ccc4nnc(C(F)(F)F)n4n3)CC2)c1", "Androgen Receptor (AR) (Homo sapiens, UniProt P10275, T878A)", 0.20),
    ("Cc1ccnc(OC2CCN(c3ccc4nnc(C(F)(F)F)n4n3)CC2)n1", "Androgen Receptor (AR) (Homo sapiens, UniProt P10275, T878A)", 0.87),
    ("FC(F)(F)c1nnc2ccc(N3CCN(Cc4ccc[nH]4)CC3)nn12", "Androgen Receptor (AR) (Homo sapiens, UniProt P10275, T878A)", 0.40),
]

// query Fill in log10 DC50 for COc1nccc(-c2c(-c3ccc(F)cc3)ncn2C2CCN(c3ccc4nnc(C(F)(F)F)n4n3)CC2)n1 tested with Androgen Receptor (AR) (Homo sapiens, UniProt P10275, T878A).
// result 0.32

// query Fill in log10 DC50 for OC1(c2cncc(C(F)(F)F)c2)CCN(c2ccc3nnc(C(F)(F)F)n3n2)CC1 tested with Androgen Receptor (AR) (Homo sapiens, UniProt P10275, T878A).
// result 0.93

// query Fill in log10 DC50 for COc1ncc(C2=CCN(c3ccc4nnc(C(F)(F)F)n4n3)CC2)cc1F tested with Androgen Receptor (AR) (Homo sapiens, UniProt P10275, T878A).
// result 0.82

// query Fill in log10 DC50 for CN(C)CCOc1cccc(C2CCN(c3ccc4nnc(C(F)(F)F)n4n3)CC2)c1 tested with Androgen Receptor (AR) (Homo sapiens, UniProt P10275, T878A).
// result 0.18

// query Fill in log10 DC50 for FC(F)(F)c1cnc(N2CCCN(c3ccc4nnc(C(F)(F)F)n4n3)CC2)c(Cl)c1 tested with Androgen Receptor (AR) (Homo sapiens, UniProt P10275, T878A).
// result -0.42

// query Fill in log10 DC50 for CCS(=O)(=O)N1CC2CN(c3ccc4nnc(C(F)(F)F)n4n3)CC2C1 (centres unmarked) tested with Androgen Receptor (AR) (Homo sapiens, UniProt P10275, T878A).
// result 0.87

// query Fill in log10 DC50 for Fc1cccc(CN2CCN(c3ccc4nnc(C(F)(F)F)n4n3)CC2)c1F tested with Androgen Receptor (AR) (Homo sapiens, UniProt P10275, T878A).
// result 0.32

// query Fill in log10 DC50 for FC(F)(F)c1nnc2ccc(N3CCN(Cc4ccc5c(c4)OCO5)CC3)nn12 tested with Androgen Receptor (AR) (Homo sapiens, UniProt P10275, T878A).
// result 0.20
